Recorded measurements of Kd, one per entry
# target.entity: feline FcRn complex (FcRn-α subunit and β-microglobulin) (feline)
# method: SPR (Biacore), FcRn on SA chip, pH 6
Give a bare numeral; the unit nM is implied.

feline IgG1a mutant ID No. 334: S428Y, D312P, S434Y, T250Q, S252H (antibody, part only; not given: Variable domains, not shown: another chain or arm of the molecule) constant: ASTTAPSVFPLAPSCGTTSGATVALACLVLGYFPEPVTVSWNSGALTSGVHTFPAVLQASGLYSLSSMVTVPSSRWLSDTFTCNVAHPPSNTKVDKTVRKTDHPPGPKPCDCPKCPPPEMLGGPSIFIFPPKPKDQLHISRTPEVTCLVVDLGPDDSDVQITWFVDNTQVYTAKTSPREEQFNSTYRVVSVLPILHQPWLKGKEFKCKVNSKSLPSPIERTISKAKGQPHEPQVYVLPPAQEELSRNKVSVTCLIKSFHPPDIAVEWEITGQPEPENNYRTTPPQLDSDGTYFVYSKLSVDRSHWQRGNTYTCSVYHEALHYHHTQKSLTQSPGK :: 0.182
feline IgG1a mutant ID No. 311: Q311H, D312P, L314K (antibody, part only; not given: Variable domains, not shown: another chain or arm of the molecule; small tags and cut ends) constant: ASTTAPSVFPLAPSCGTTSGATVALACLVLGYFPEPVTVSWNSGALTSGVHTFPAVLQASGLYSLSSMVTVPSSRWLSDTFTCNVAHPPSNTKVDKTVRKTDHPPGPKPCDCPKCPPPEMLGGPSIFIFPPKPKDTLSISRTPEVTCLVVDLGPDDSDVQITWFVDNTQVYTAKTSPREEQFNSTYRVVSVLPILHHPWKKGKEFKCKVNSKSLPSPIERTISKAKGQPHEPQVYVLPPAQEELSRNKVSVTCLIKSFHPPDIAVEWEITGQPEPENNYRTTPPQLDSDGTYFVYSKLSVDRSHWQRGNTYTCSVSHEALHSHHTQKSLTQSPGK :: 1.44
feline IgG1a mutant ID No. 284: S252Y, Q311W, D312P, S434Y (antibody, part only; not given: Variable domains, not shown: another chain or arm of the molecule) constant: ASTTAPSVFPLAPSCGTTSGATVALACLVLGYFPEPVTVSWNSGALTSGVHTFPAVLQASGLYSLSSMVTVPSSRWLSDTFTCNVAHPPSNTKVDKTVRKTDHPPGPKPCDCPKCPPPEMLGGPSIFIFPPKPKDTLYISRTPEVTCLVVDLGPDDSDVQITWFVDNTQVYTAKTSPREEQFNSTYRVVSVLPILHWPWLKGKEFKCKVNSKSLPSPIERTISKAKGQPHEPQVYVLPPAQEELSRNKVSVTCLIKSFHPPDIAVEWEITGQPEPENNYRTTPPQLDSDGTYFVYSKLSVDRSHWQRGNTYTCSVSHEALHYHHTQKSLTQSPGK :: 7.27

Note to self: Kd recorded for feline IgG1a mutant ID No. 371: S252Y, S434R, Q311K (antibody, part only; not given: Variable domains, not shown: another chain or arm of the molecule) constant: ASTTAPSVFPLAPSCGTTSGATVALACLVLGYFPEPVTVSWNSGALTSGVHTFPAVLQASGLYSLSSMVTVPSSRWLSDTFTCNVAHPPSNTKVDKTVRKTDHPPGPKPCDCPKCPPPEMLGGPSIFIFPPKPKDTLYISRTPEVTCLVVDLGPDDSDVQITWFVDNTQVYTAKTSPREEQFNSTYRVVSVLPILHKDWLKGKEFKCKVNSKSLPSPIERTISKAKGQPHEPQVYVLPPAQEELSRNKVSVTCLIKSFHPPDIAVEWEITGQPEPENNYRTTPPQLDSDGTYFVYSKLSVDRSHWQRGNTYTCSVSHEALHRHHTQKSLTQSPGK was 0.488

Note to self: Kd recorded for feline IgG1a mutant ID No. 308: P247V, S252H (antibody, part only; not given: Variable domains, not shown: another chain or arm of the molecule; small tags and cut ends) constant: ASTTAPSVFPLAPSCGTTSGATVALACLVLGYFPEPVTVSWNSGALTSGVHTFPAVLQASGLYSLSSMVTVPSSRWLSDTFTCNVAHPPSNTKVDKTVRKTDHPPGPKPCDCPKCPPPEMLGGPSIFIFPPKVKDTLHISRTPEVTCLVVDLGPDDSDVQITWFVDNTQVYTAKTSPREEQFNSTYRVVSVLPILHQDWLKGKEFKCKVNSKSLPSPIERTISKAKGQPHEPQVYVLPPAQEELSRNKVSVTCLIKSFHPPDIAVEWEITGQPEPENNYRTTPPQLDSDGTYFVYSKLSVDRSHWQRGNTYTCSVSHEALHSHHTQKSLTQSPGK was 5.61

Note to self: Kd recorded for feline IgG1a mutant ID No. 324: S428Y, D312P, S434Y, D399M, T403R (antibody, part only; not given: Variable domains, not shown: another chain or arm of the molecule) constant: ASTTAPSVFPLAPSCGTTSGATVALACLVLGYFPEPVTVSWNSGALTSGVHTFPAVLQASGLYSLSSMVTVPSSRWLSDTFTCNVAHPPSNTKVDKTVRKTDHPPGPKPCDCPKCPPPEMLGGPSIFIFPPKPKDTLSISRTPEVTCLVVDLGPDDSDVQITWFVDNTQVYTAKTSPREEQFNSTYRVVSVLPILHQPWLKGKEFKCKVNSKSLPSPIERTISKAKGQPHEPQVYVLPPAQEELSRNKVSVTCLIKSFHPPDIAVEWEITGQPEPENNYRTTPPQLMSDGRYFVYSKLSVDRSHWQRGNTYTCSVYHEALHYHHTQKSLTQSPGK was 0.113

Note to self: Kd recorded for feline IgG1a mutant ID No. 273: S252R, S434F, Q311W (antibody, part only; not given: Variable domains, not shown: another chain or arm of the molecule) constant: ASTTAPSVFPLAPSCGTTSGATVALACLVLGYFPEPVTVSWNSGALTSGVHTFPAVLQASGLYSLSSMVTVPSSRWLSDTFTCNVAHPPSNTKVDKTVRKTDHPPGPKPCDCPKCPPPEMLGGPSIFIFPPKPKDTLRISRTPEVTCLVVDLGPDDSDVQITWFVDNTQVYTAKTSPREEQFNSTYRVVSVLPILHWDWLKGKEFKCKVNSKSLPSPIERTISKAKGQPHEPQVYVLPPAQEELSRNKVSVTCLIKSFHPPDIAVEWEITGQPEPENNYRTTPPQLDSDGTYFVYSKLSVDRSHWQRGNTYTCSVSHEALHFHHTQKSLTQSPGK was 4.77

Note to self: Kd recorded for feline IgG1a mutant ID No. 250: S428M, Q311W (antibody, part only; not given: Variable domains, not shown: another chain or arm of the molecule) constant: ASTTAPSVFPLAPSCGTTSGATVALACLVLGYFPEPVTVSWNSGALTSGVHTFPAVLQASGLYSLSSMVTVPSSRWLSDTFTCNVAHPPSNTKVDKTVRKTDHPPGPKPCDCPKCPPPEMLGGPSIFIFPPKPKDTLSISRTPEVTCLVVDLGPDDSDVQITWFVDNTQVYTAKTSPREEQFNSTYRVVSVLPILHWDWLKGKEFKCKVNSKSLPSPIERTISKAKGQPHEPQVYVLPPAQEELSRNKVSVTCLIKSFHPPDIAVEWEITGQPEPENNYRTTPPQLDSDGTYFVYSKLSVDRSHWQRGNTYTCSVMHEALHSHHTQKSLTQSPGK was 5.56
